Source listed as patent US11001587B2.

Listed here are compounds together with their documented Remaining after 1 h, HLM.
Experiment: Metabolic stability in human liver microsomes
Assay type: in vitro ADME
Conditions: human liver microsomes, 5 μM test item, 0.125 mg/mL microsomal protein
Expressed in %, but write only the number.

// worked examples, Remaining after 1 h, HLM included
Cc1cc(NCc2ccncc2)c2nc(C)c(-c3ccc4c(c3)c(C)nn4C)n2n1 [Example 1] | 90
Cc1cc(NCc2ccc(S(C)(=O)=O)cc2)c2nc(C)c(-c3ccc4c(c3)c(C)nn4C)n2n1 [Example 7] | 75
Cc1cc(NCc2ccc(S(C)(=O)=O)cc2)n2nc(C)c(-c3ccc4c(c3)c(C)nn4C)c2n1 [Example 12] | 84
Cc1nc(NCc2ccncc2)n2nc(C)c(-c3ccc4c(c3)c(C)nn4C)c2n1 [Example 20] | 78

Exam item: # Remaining after 1 h, HLM lookup, item Cc1cc(NCc2ccncc2)n2nc(C)c(-c3ccc4c(c3)c(C)nn4C)c2n1 [Example 8]
Marked response: 86
